TGI reference
Test system: CCRF-CEM leukemia
protocolSummary: NCI tumour cell line growth inhibition, 48 h

CC(=O)O[C@H]1C(=O)[C@@]2(C)C(C(OC(=O)c3ccccc3)[C@]3(O)CC(OC(=O)C(O)C(NC(=O)c4ccccc4)c4ccc(C)cc4)C(C)=C1C3(C)C)[C@]1(OC(C)=O)CO[C@@H]1C[C@@H]2O (some centres undefined) :: 9.81 µM
Cc1nnc(CC#N)n1NC(=O)CC#N :: > 100 µM
CCCCN(CCCC)C(=O)C(=O)CC(=O)/C=C/c1ccccc1 :: > 100 µM
C=C1C(=O)O[C@H]2C3C(=C(C)CC[C@@H]12)C(=O)[C@@H]1OC31C (some centres undefined) :: 1.31 µM
COc1cc(CC2CC(c3ccc4c(c3)OCO4)OC2=O)cc(OC)c1OC (centres undefined) :: > 100 µM
COc1cc(CNC(=O)CCSc2nc3ccccc3c(=O)n2Cc2cc(OC)c(OC)c(OC)c2)cc(OC)c1OC :: > 100 µM
Cc1ccc(S(=O)(=O)c2ccsc2N)cc1 :: > 100 µM
Cn1c(=O)c2[nH]c(CCC(=O)O)nc2n(C)c1=O :: > 100 µM

Note: attention shifts to another entry.
[in] GET /values?readout=TGI&item= `C=C(C)[C@@H]1CC[C@]2(C)[C@H](CC=C3[C@@H]4[C@H](C)[C@@H](C)CC[C@]4(CO)CC[C@]32C)[C@@]1(C)CCCN`
[out] 5.26 µM

* * *

System: HCT-116 colon
protocolSummary: NCI tumour cell line growth inhibition, 48 h
propertyName: TGI (µM)
Please give a number only; it is taken to be in µM.

CCCCCCCCCCCCCCC(O)C1CCC(C(O)CCC(O)CCCCCC(O)CC2=CC(C)OC2=O)O1 (stereo not given) :: 11.1

With those in mind, consider the next compound.
[in] Given the compound `N#Cc1c(NCc2ccccc2)nc(NCc2ccccc2)c(C#N)c1-c1cccc(O)c1` , what is its reported TGI?
[out] 16.1

* * *

Test system: UO-31 renal
protocolSummary: NCI tumour cell line growth inhibition, 48 h
propertyName: TGI

Solved entries (count: 2):
CCCCCCCCCCCCCCC(O)C1CCC(C(O)CCC(O)CCCCCC(O)CC2=CC(C)OC2=O)O1 (stereo not given) :: 6.78 µM
CN/N=C(\C(=O)Nc1ccc([N+](=O)[O-])cc1[N+](=O)[O-])C1NC(=O)NC1=O (stereo not given) :: > 100 µM

Consider now this further molecule.
[in] Requested field: TGI. Item: `Cc1ccc2c(=O)c(C(=O)N(CCO)CCO)c[nH]c2n1`
[out] > 100 µM

* * *

System: HOP-92 NSCLC
protocolSummary: NCI tumour cell line growth inhibition, 48 h
propertyName: TGI

Cc1ccc(S(=O)(=O)N2CCN(CCO)CCN(S(=O)(=O)c3ccc(C)cc3)CCN(CCO)CC2)cc1 :: 66 µM
Cc1ccc(/C=C2\CN(Cc3cn(CCNc4ccnc5cc(Cl)ccc45)nn3)C/C(=C\c3ccc(C)cc3)C2=O)cc1 :: 3.01 µM
CN(C)c1ccc(/C=C2\C[C@H]3[C@@H]4CCc5cc(O)ccc5[C@H]4CC[C@]3(C)C2=O)cc1 :: > 100 µM

[in] Reported TGI, molecule `O=S(=O)(O)c1ccc(Nc2ccnc3cc(Cl)ccc23)cc1` : ____
[out] > 100 µM

[in] Also, `O=C(NCc1cccnc1)C(=O)NCc1cccnc1` please.
[out] > 100 µM

* * *

Tested on: M14 melanoma
protocolSummary: NCI tumour cell line growth inhibition, 48 h
propertyName: TGI

CC(C)(F)C[C@H](N[C@@H](c1ccc(-c2ccc(S(C)(=O)=O)cc2)cc1)C(F)(F)F)C(=O)NC1(C#N)CC1 :: > 100 µM
O=c1c(-c2ccc(O)cc2)coc2cc(O)cc(O)c12 :: > 100 µM
COC(=O)C[C@H](CCSC)NC(=O)C[C@H](CCSC)NC(=O)C[C@H](CCSC)NC(=O)OC(C)(C)C :: > 100 µM
CC1(O)C(=O)OC2CC([C@]3(O)CCC4[C@@H]5C[C@H]6O[C@]67[C@@H](O)C=CC(=O)[C@]7(C)C5CC[C@@]43C)C1(C)C2 (stereo not given in full) :: 26.4 µM
O=C(NC/C=C/Br)NC1CCNc2ccccc21 (stereo not given) :: 34.5 µM

[in] What does the data say about its TGI? Entry: `C(#Cc1ccccc1C#Cc1ccccn1)c1ccccn1`
[out] > 100 µM

[in] How about `N#Cc1c(-c2ccc(Cl)cc2)cc(-c2nc3ccccc3[nH]2)nc1N` ?
[out] 16.2 µM

[in] Let us now turn to `COc1ccc(C2=NNC(=O)c3ccccc3N2c2nc(-c3cccs3)nc3ccc(Br)cc23)cc1`
[out] > 100 µM

[in] Proceed to COC(=O)C(C(=O)OC)C1CC(=O)c2c(Br)sc(Br)c21 (stereo not given)
[out] 40.8 µM

[in] And what about the compound COc1cc(CC2CC(c3ccc4c(c3)OCO4)OC2=O)cc(OC)c1OC (stereo not given) ?
[out] > 100 µM

* * *

Test system: SNB-75 CNS
protocolSummary: NCI tumour cell line growth inhibition, 48 h; in the data active = GI50 below about 0.43 µM; inactive = the rest
Mark one answer only. Choices: yes (1) for active, no (0) for inactive

Consider the following illustrative entries.
N#CC1CCc2c(c(-c3cn[nH]c3C(F)(F)F)nc3c(F)cc4[nH]ncc4c23)C1 (stereo unspecified) :: no (0)
O=S1(=O)CC(Br)C(Br)C1 (stereo unspecified) :: no (0)
N#Cc1c(NCc2ccccc2)nc(NCc2ccccc2)c(C#N)c1-c1cccc(O)c1 :: no (0)

[in] // param item: `O=C(O)c1cc2c(c3ccsc13)-c1ccccc1CC2` ; yields the recorded call
[out] no (0)

[in] Please answer likewise for CCC(=O)OC1=CN2C(=NC(c3ccc(N)cc3)=CC2c2cc(OC)c(OC)c(OC)c2)S1 (stereo unspecified)
[out] no (0)

[in] For `C[C@H]1CC2=CC(=O)CC[C@]2(C)[C@H]2CC[C@@]3(C)[C@@H](CC[C@]3(C)O)[C@H]12` then?
[out] no (0)

* * *

This section presents compounds with their documented TGI values.
Test system: NCI-H226 lung
protocolSummary: NCI tumour cell line growth inhibition, 48 h

Record excerpt, results attached:
C=C1C(=O)O[C@H]2[C@H]([C@H](C)CCCC(C)=O)O[C@H]([C@@]3(C)CCC(=O)O3)C[C@@H]12 :: 80.5 µM
COC(=O)c1c(C#C[Si](C)(C)C)c(C#C[Si](C)(C)C)c(C#C[Si](C)(C)C)c(C#C[Si](C)(C)C)c1C(=O)OC :: > 100 µM
Cc1nn2c(/C=C3\C(=O)Nc4ccccc43)c(C)nc2s1 :: > 100 µM
Cc1ccc(/C=C2\CN(Cc3cn(CCNc4ccnc5cc(Cl)ccc45)nn3)C/C(=C\c3ccc(C)cc3)C2=O)cc1 :: 4.8 µM
Cc1cc(C)c2c(c1)CC1(Cc3c(C)cc(C)cc3C1=O)C2=O (centres undefined) :: > 100 µM

[in] Give the reported TGI for CCOC(=O)C1=C(C)N(c2ccc(C)cc2)C2(O)C=CC(=O)C3=C(O)c4ccccc4C(=O)C312 (centres undefined) (system: NCI-H226 lung).
[out] > 100 µM

[in] What do we get for `O=c1oc2cc(OS(=O)(=O)c3ccccc3)ccc2c2c1CCCCC2` ?
[out] > 100 µM

[in] Can you handle `CN(C)C=Nc1nncc2n[nH]nc12` next?
[out] > 100 µM

[in] Repeat with COc1cc2c3c(c1OC)Oc1ccc(cc1)CC1c4c(cc(OC)c(OC)c4Oc4ccc(cc4)CC3N(C)CC2)CCN1C (centres undefined)
[out] 55.5 µM

* * *

System: OVCAR-8 ovarian
protocolSummary: NCI tumour cell line growth inhibition, 48 h
propertyName: TGI

Example compounds with recorded TGI:
CC1OC=CC(=O)C1O (stereo unspecified) :: > 100 µM
Cc1ccc2cnc(N)c(C#Cc3cncc(C(=O)Nc4ccc(CN5CCN(C)CC5)c(C(F)(F)F)c4)c3)c2c1 :: 1.22 µM
S=c1[nH]nc(SCc2ccccc2Cl)c2[nH]cnc12 :: > 100 µM

Could you now look at the following compound, please?
[in] Returns the measured TGI for the input compound. Input: `CN(C)C=Nc1nncc2n[nH]nc12`
[out] > 100 µM

* * *

System: MCF7 breast
protocolSummary: NCI tumour cell line growth inhibition, 48 h
propertyName: TGI

Example cases with answers are listed next.
CC1(O)C(=O)OC2CC([C@]3(O)CCC4[C@@H]5C[C@H]6O[C@]67[C@@H](O)C=CC(=O)[C@]7(C)C5CC[C@@]43C)C1(C)C2 (some centres undefined) :: > 33 µM
Cc1ccc2c(=O)c(C(=O)N(CCO)CCO)c[nH]c2n1 :: > 100 µM
CN1N=Nc2c(C(F)(F)F)nn(-c3ccccc3)c2N(C)C1=O :: > 100 µM
Cc1nnc(CC#N)n1NC(=O)CC#N :: > 100 µM

[in] Lookup: TGI / MCF7 breast / `COc1cc(/C=C\c2cc(OC)c(OC)c(OC)c2)cc(NS(=O)(=O)c2cccc(Cl)c2)c1OC`
[out] > 100 µM

[in] # iterate: `CS(=O)(=O)Nc1cc(-c2ccc3ncnc(Nc4cccc(Cl)c4F)c3c2)cnc1Cl`
[out] 20.1 µM

[in] Param item: `CN(C)C=Nc1nncc2n[nH]nc12`
[out] > 100 µM

[in] Now try `Cc1ccc(S(=O)(=O)N2CCN(CCO)CCN(S(=O)(=O)c3ccc(C)cc3)CCN(CCO)CC2)cc1` .
[out] 28.2 µM

[in] Entry to check: `CCCCCCCCC[n+]1cccc(C2C(C(=O)OCC)=C(C)NC(C)=C2C(=O)OCC)c1`
[out] 6.74 µM
